Source listed as patent US7695908B2.

Test: HPLC quantification of red blood cell MTXPG concentrations in rheumatoid arthritis patients on low-dose MTX therapy, with regression on age, dose, route and RFC-1/GGH genotype
Type: in vivo, human
Details: unadjusted, Kruskall-Wallis; FIG. 3
Method: The study was cross-sectional at three investigational sites (The Center of Rheumatology, Albany, N.Y.; Rheumatology Practice, Knoxville, Tenn.; Radiant Research, Daytona Beach, Fla.). […] Red blood cell MTXPG concentrations were measured as described previously using an HPLC-fluorometry procedure with a post-column photo-oxidation technique (Dervieux et al., Clin. Chem., 49:1632-1641 (2003)). […]
Readout Kind: Change of RBC level with increased pharmacogenetic index (PI, from −1 to 1)

{"Molecule": "CN(Cc1cnc2nc(N)nc(N)c2n1)c1ccc(C(=O)N[C@@H](CCC(=O)N[C@@H](CCC(=O)N[C@@H](CCC(=O)O)C(=O)O)C(=O)O)C(=O)O)cc1", "Result": "increased"}
{"Molecule": "CN(Cc1cnc2nc(N)nc(N)c2n1)c1ccc(C(=O)N[C@@H](CCC(=O)N[C@@H](CCC(=O)N[C@@H](CCC(=O)N[C@@H](CCC(=O)O)C(=O)O)C(=O)O)C(=O)O)C(=O)O)cc1", "Result": "increased"}
{"Molecule": "CN(Cc1cnc2nc(N)nc(N)c2n1)c1ccc(C(=O)NC(CCC(=O)NC(CCC(=O)NC(CCC(=O)NC(CCC(=O)NC(CCC(=O)O)C(=O)O)C(=O)O)C(=O)O)C(=O)O)C(=O)O)cc1 (centres unmarked)", "Result": "increased"}
